# Experimental Target: T1, recombinant RSV-F protein (RSV A2 strain fusion (F) protein with added His tag) (human respiratory syncytial virus, A2 …, UniProt P03420 26-524)
# T1 construct: also called RSV-F recombinant protein
# T1 sequence (P03420 26-109, chain 1 of 2): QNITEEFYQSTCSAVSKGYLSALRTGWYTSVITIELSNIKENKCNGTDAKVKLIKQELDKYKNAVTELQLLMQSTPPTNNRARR
# T1 sequence (P03420 137-524, chain 2 of 2): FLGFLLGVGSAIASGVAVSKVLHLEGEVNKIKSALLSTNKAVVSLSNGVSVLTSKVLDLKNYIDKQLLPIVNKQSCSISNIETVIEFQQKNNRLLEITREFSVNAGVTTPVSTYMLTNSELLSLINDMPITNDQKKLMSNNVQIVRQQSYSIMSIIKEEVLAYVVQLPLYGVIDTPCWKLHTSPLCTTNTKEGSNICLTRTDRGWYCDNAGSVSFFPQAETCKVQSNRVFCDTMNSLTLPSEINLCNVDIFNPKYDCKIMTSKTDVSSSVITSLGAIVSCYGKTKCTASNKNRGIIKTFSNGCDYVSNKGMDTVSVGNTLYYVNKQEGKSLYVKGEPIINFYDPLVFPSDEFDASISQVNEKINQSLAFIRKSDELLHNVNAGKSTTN
# Test: SPR (Biacore), antibody captured, RSV-F as analyte
Listing of recorded pKd by entry.
pKd is a log-scale quantity: -log10 of the concentration expressed in molar.

Field: example entries. Status: answers known.
[
  {
    "Binder": "R18-22D7QH (antibody, human IgG1, kappa, V domains shown, also called chimeric antibody of R18-22D7) VH: EVKLLESGGGLVQPGGSLKLSCAASGFDFSRYWMSWVRQAPGKGLEWIGEINPDSSTINYTPSLKDKFIISRDNAKNTLYLQMSKVRSEDTALYYCARRGGISYAMDYWGQGTSVTVSS VL: DIVITQDELSNPVTSGESVSISCRSSKSLLYKDGKTYLNWFLQRPGQSPQLLIYLMSTRASGVSDRFSGSGSGTDFTLEISRVKAEDVGVYYCQQLVEYPRTFGGGTKLEIKR",
    "Value": 8.45
  },
  {
    "Binder": "R18-11B1QH (antibody, human IgG1, kappa, V domains shown, also called chimeric antibody of R18-11B1) VH: EVQLEESGPELVKPGASVKISCKSSAQTFSGSWINWVKQRPGQGLEWIGRIFPGDGDTKYNMNFTGKATLTADKSSNTAYMHVSSLTSVDSAVYFCARYDGYYDIGYFDVWGAGTTVTVSS VL: DIVMTQTPASLAVSLGQRATISCRASASVDSYGNKFIHWYQQKPGQPPKLLISLASNLESGVPARFSGSGSRTDFTLTIDPVEADDAATYYCQQTNEDPWTFGGGTKLEIKR",
    "Value": 9.69
  }
]

Now consider a different binder.
# input Fill in: pKd of R3-38B6QH (antibody, human IgG1, kappa, V domains shown, also called chimeric antibody of R3-38B6) VH: QVQLEESGPELVKPGASVKISCKASGYAFSSSWMNWVKQRPGQGLEWIGRIYPGDGDTQYHGKVKGKATLTADKSSSTAYMQVSSLTSVDSAVYFCAREGGMITSNGYYHALDYWGQGTSVTVSS VL: DIVMTQTTASLAVSQGQRATISCSASESVDSYGNSFMNWYQQKPGQPPKVLIYLASNLESGVPARFSGSGSRTDFTLTIDPVEADDAATYYCQQNNEDPTFGGGTKLEIKR is ___
# output 10.21

Data provenance is patent US20250026815A1.
